Each recorded value in this set is attributed to PubChem BioAssay AID1963972.

# Test system: 945468-187-T-J2-PDC spheroids viability
# PROTOCOL_NOTES: Anticancer human tumor 945468-187-T-J2-PDC patient-derived rectal carcinoma cell line growth inhibition [PI3K]
# TEST_PARAMETERS: curve of first compound; second compound 0.1 µM; spheroids with HUVEC and MSC
pIC50: −log10 of the molar value.
READOUT: pIC50

Consider the following illustrative entries.
MOLECULE	pIC50
Cn1cnc2c(F)c(Nc3ccc(Br)cc3Cl)c(C(=O)NOCCO)cc21 + Cc1nc(NC(=O)N2CCCC2C(N)=O)sc1-c1ccnc(C(C)(C)C(F)(F)F)c1	< 5.52
C[C@@H](NC(=O)c1ncnc(N)c1Cl)c1ncc(C(=O)Nc2cc(C(F)(F)F)c(Cl)cn2)s1 + CC(Nc1ncnc2nc[nH]c12)c1cc2cccc(Cl)c2c(=O)n1-c1ccccc1	< 5.00
CNC(=O)c1ccc(N2C(=S)N(c3ccc(C#N)c(C(F)(F)F)c3)C(=O)C2(C)C)cc1F + CC(Nc1ncnc2nc[nH]c12)c1cc2cccc(Cl)c2c(=O)n1-c1ccccc1	< 5.00
Cn1ncc(Cl)c1-c1cc(C(=O)NC(CN)Cc2cccc(F)c2)sc1Cl (stereo unspecified) + CC(Nc1ncnc2nc[nH]c12)c1cc2cccc(Cl)c2c(=O)n1-c1ccccc1	< 5.00
CCCS(=O)(=O)Nc1ccc(F)c(C(=O)c2c[nH]c3ncc(-c4ccc(Cl)cc4)cc23)c1F + Cc1nc(NC(=O)N2CCCC2C(N)=O)sc1-c1ccnc(C(C)(C)C(F)(F)F)c1	5.41
CC1(C)CCC(CN2CCN(c3ccc(C(=O)NS(=O)(=O)c4ccc(NCC5CCOCC5)c([N+](=O)[O-])c4)c(Oc4cnc5[nH]ccc5c4)c3)CC2)=C(c2ccc(Cl)cc2)C1 + COc1c(OCCCN2CCOCC2)ccc2c3n(c(=NC(=O)c4cnc(N)nc4)nc12)CCN3	< 5.00

Req: Item CC(C)n1nc(-c2ccc3oc(N)nc3c2)c2c(N)ncnc21 + COc1c(OCCCN2CCOCC2)ccc2c3n(c(=NC(=O)c4cnc(N)nc4)nc12)CCN3 has what recorded pIC50?
Resp: 7.69

Req: Dear colleague, I am looking for the recorded pIC50 of the following molecule: C#Cc1c(F)ccc2cc(O)cc(-c3ncc4c(N5CC6CCC(C5)N6)nc(OCC56CCCN5CC(F)C6)nc4c3F)c12 (stereo unspecified) + CC(Nc1ncnc2nc[nH]c12)c1cc2cccc(Cl)c2c(=O)n1-c1ccccc1
Resp: < 5.00

Req: # input molecule: CCCS(=O)(=O)Nc1ccc(F)c(C(=O)c2c[nH]c3ncc(-c4ccc(Cl)cc4)cc23)c1F + CC(Nc1ncnc2nc[nH]c12)c1cc2cccc(Cl)c2c(=O)n1-c1ccccc1 ; wanted: its pIC50
Resp: 5.30

Req: Please look up its pIC50: C#Cc1c(F)ccc2cc(O)cc(-c3ncc4c(N5CC6CCC(C5)N6)nc(OCC56CCCN5CC(F)C6)nc4c3F)c12 (stereo unspecified) + COc1c(OCCCN2CCOCC2)ccc2c3n(c(=NC(=O)c4cnc(N)nc4)nc12)CCN3
Resp: < 5.00

###

// values below are reported viability, T/C
# Tested on: 945468-187-T-J2-PDC spheroids viability
# PROTOCOL_NOTES: Anticancer human tumor 945468-187-T-J2-PDC cell line growth inhibition [PI3K];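 also: spheroids exposed to compounds for seven days before reading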
# TEST_PARAMETERS: second compound 0.1 µM; first compound 1 µM; stronger effect = lower value; spheroids with HUVEC and MSC
# Source text: Combinatorial screen of targeted agents with the PI3K inhibitors inavolisib, alpelisib, duvelisib, and copanlisib in multi-cell type tumor spheroids A high-throughput screen of multi-cell type tumor spheroids was designed to identify active combinations of targeted small molecules and PI3K pathway inhibitors. […] Compounds. […] If the clinical Cmax for an agent had not been determined, the highest concentration tested was 10 microM. […]
Dear colleague, please return just the value in %, with no unit written.

Here is how some compounds turned out for viability, T/C.
COMPOUND	viability, T/C (%)
C=CC(=O)N1CCN(c2nc(=O)n(-c3c(C)ccnc3C(C)C)c3nc(-c4c(O)cccc4F)c(F)cc23)C(C)C1 (stereo not drawn) + COc1c(OCCCN2CCOCC2)ccc2c3n(c(=NC(=O)c4cnc(N)nc4)nc12)CCN3	85.6
CC(C)NCC(C(=O)N1CCN(c2ncnc3c2C(C)CC3O)CC1)c1ccc(Cl)cc1 (stereo not drawn) + Cc1nc(NC(=O)N2CCCC2C(N)=O)sc1-c1ccnc(C(C)(C)C(F)(F)F)c1	103

Req: Reported viability, T/C for CC1(C)CCC(Nc2ncc(C(F)(F)F)c(-c3c[nH]c4c(P(C)(C)=O)c(C#N)ccc34)n2)CN1 (stereo not drawn) + COc1c(OCCCN2CCOCC2)ccc2c3n(c(=NC(=O)c4cnc(N)nc4)nc12)CCN3 : what is it?
Resp: 43.5
